- target_of_assay: UniProtKB Q99500
- test_protocol: S1P3 receptor NFAT-BLA reporter inhibition, dose response, counter-screen for 5HT1E antagonist project, CHO cells, Ga15, NFAT beta-lactamase, FRET (AID 776)
measured_endpoint: IC50 (µM)

INSERT INTO assay_data (compound, measured_endpoint, measured_value) VALUES
  ('CS(=O)(=O)c1nc(-c2ccccc2)cc(C(F)(F)F)n1 [MLS000044644]', 'IC50', 3.51);

(1) COc1cccc(N2CCN(c3ncnc4c3[nH]c3ccc(F)cc34)CC2C)c1 (stereo not given)
(2) O=S1(=O)C=C(Sc2nnc(-c3ccccc3)o2)c2ccccc21
(3) N#CCCS(=O)(=O)c1nnnn1-c1ccccc1
Put the entries in order of IC50, starting with the largest number. Write out the labels following the order that was asked for.
3, 2, 1

---

- target_of_assay: Sphingosine 1-phosphate receptor 3 (Homo sapiens, UniProt Q99500)
- Sequence (Q99500 whole entry): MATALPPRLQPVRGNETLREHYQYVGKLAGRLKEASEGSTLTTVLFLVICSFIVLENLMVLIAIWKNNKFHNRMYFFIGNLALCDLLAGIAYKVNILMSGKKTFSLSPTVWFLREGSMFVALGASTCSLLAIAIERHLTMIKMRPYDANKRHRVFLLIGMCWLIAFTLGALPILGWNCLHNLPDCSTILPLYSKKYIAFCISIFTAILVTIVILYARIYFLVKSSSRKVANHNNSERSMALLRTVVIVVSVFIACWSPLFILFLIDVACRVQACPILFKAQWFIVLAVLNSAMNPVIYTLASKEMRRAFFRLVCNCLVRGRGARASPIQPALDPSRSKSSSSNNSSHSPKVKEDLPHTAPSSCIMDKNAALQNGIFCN
- test_protocol: S1P3 receptor NFAT-BLA reporter inhibition, dose response, counter-screen for 5HT1E antagonist project, CHO cells, Ga15, NFAT beta-lactamase, FRET (AID 776)
pIC50: −log10 of the molar value.
measured_endpoint: pIC50

INSERT INTO results (compound, measured_value) VALUES
  ('Cc1ccc(N(CC2=NCCN2)c2cccc(O)c2)cc1 [SMR000059054]', '< 4.30'),
  ('CCCOCCOC(=O)c1[nH]c2c(c1C)C(=O)CC(c1cc(OC)ccc1OC)C2 (stereo unspecified)', '< 4.41'),
  ('COc1cc(NS(=O)(=O)c2ccc(C)cc2)c2ncccc2c1 [SMR000071147]', '< 4.41'),
  ('CCC(NC(=O)Nc1nnc(C(F)(F)F)s1)(C(F)(F)F)C(F)(F)F', '< 4.91'),
  ('CC(C)=CCC(C)(C)CNC(=O)NC1CCCCC1', '< 4.30');

Now turn to the next compound.
Please report the measured pIC50 for OCC12C=CC(O1)c1c2c(O)n(-c2ccc(-c3ccccc3)cc2)c1O (stereo unspecified) tested on Sphingosine 1-phosphate receptor 3 (Homo sapiens, UniProt Q99500).
< 4.91

---

- target_of_assay: Sphingosine 1-phosphate receptor 3 (Homo sapiens, UniProt Q99500)
- test_protocol: S1P3 receptor NFAT-BLA reporter inhibition, dose response, counter-screen for 5HT1E antagonist project, CHO cells, Ga15, NFAT beta-lactamase, FRET (AID 776)
Reported IC50 values follow for various molecules
Give just the number in µM; leave the unit off.

# return recorded IC50 for input COc1ccc(-n2nnnc2S(=O)(=O)CC(=O)N2CCCCC2)cc1
4.32

For CCn1nc(-c2cccs2)nc2c(=O)n(C)c(=O)nc1-2 , write its IC50.
0.815

Indicate its recorded IC50; the molecule in question is CCn1nc(-c2ccccc2)nc2c(=O)n(C)c(=O)nc1-2
1.08

---

Catalogue of IC50 values
- target_of_assay: UniProtKB Q99500
- test_protocol: S1P3 receptor NFAT-BLA reporter inhibition, dose response, counter-screen for 5HT1E antagonist project, CHO cells, Ga15, NFAT beta-lactamase, FRET (AID 776)

Examples with answers:
INSERT INTO measurements (compound, target_of_assay, measured_value) VALUES
  ('COC(=O)Nc1nc2ccc(Sc3ccccc3)cc2[nH]1 [FENBENDAZOLE]', 'UniProtKB Q99500', '> 50 µM'),
  ('CCCc1nnc2n1N=C(c1ccc(OC)c(OC)c1)CS2 [SMR000057783]', 'UniProtKB Q99500', '> 50 µM'),
  ('CN(C)c1nc(OCCNC(=O)COc2ccc(Cl)cc2Cl)nc(N2CCCCC2)n1 [SMR000072558]', 'UniProtKB Q99500', '> 50 µM');

Supply recorded IC50 for Cc1ccc(S(=O)(=O)Nc2cccc3ncccc23)s1 here.
> 39 µM

Retrieve IC50 measured for O=C(Nc1ccc(-c2nc3ncccc3o2)cc1)c1ccc(Br)o1 and print it.
> 50 µM

Supply reported IC50 belonging to this compound: CCOc1cccc(-c2nnc3n2N=C(c2cc(OC)ccc2OC)CS3)c1 [MLS000081451]
> 17.7 µM

---

- target_of_assay: Sphingosine 1-phosphate receptor 3 (Homo sapiens, UniProt Q99500)
- test_protocol: S1P3 receptor NFAT-BLA reporter inhibition, dose response, counter-screen for 5HT1E antagonist project, CHO cells, Ga15, NFAT beta-lactamase, FRET (AID 776)
pIC50: −log10 of the molar value.
Each item that follows carries a reported pIC50.

INSERT INTO results (compound, measured_endpoint, measured_value) VALUES
  ('COc1cc2c(cc1OC)-c1cc(N3CCCc4ccccc43)nc(=O)n1CC2', 'pIC50', '< 4.75'),
  ('COc1ccc(-n2c(O)cc(NCc3ccncc3)c2O)cc1', 'pIC50', '< 4.30'),
  ('COc1ccc(C2N(c3ccc(F)cc3)C(=O)C3CCCN32)cc1 (centres undefined)', 'pIC50', '< 4.30');

In the following, a different compound is considered.
Report value only: pIC50, Sphingosine 1-phosphate receptor 3 (Homo sapiens, UniProt Q99500), O=C(Nc1ccc(N2CCOCC2)cc1)Nc1ccc2nc(-c3ccco3)c(-c3ccco3)nc2c1
< 4.91
